# study_system: GPR84 (Homo sapiens (Human))
# assay: Gai biosensor BRET assay (GPR84-mediated activation of Gai, antagonist mode against agonist ZQ-16)
# Type: cell-based
# assay_conditions: compound tested at 10 μM (concentration code D)
The following molecules are shown together with reported inhibition at 10 µM values.

Some entries whose results are on file:
Cc1cc(OCc2cscn2)cc(=O)n1[C@H](C)c1ccc(C#CC2CC2)cc1 = > 75%
Cc1cc(OCc2cn(C)cn2)cc(=O)n1[C@H](C)c1ccc(C#CC2CC2)cc1 = > 75%
Cc1cc(OCc2ncccn2)cc(=O)n1-c1ccc(C#CC2CC2)cc1 = < 25%
Cc1cc(OCc2ncccn2)cc(=O)n1Cc1ccc(N2CC(C)(C)C2)cc1 = < 25%
Cc1cc(OCc2ncccn2)cc(=O)n1Cc1cc(C#CC2CC2)ccc1F = < 25%

Inquiry: Recall and state the measured inhibition at 10 µM for CCc1cc(OCC2COCCO2)cc(=O)n1C(C)c1ccc(C#CC2CC2)cc1 (centres unmarked) .
Reply text: 25 to 50%

Inquiry: Recall and state the measured inhibition at 10 µM for Cc1cc(OCc2ncccn2)cc(=O)n1[C@H](C)c1ccc(C#CCN(C)Cc2ccccc2)cc1 .
Reply text: 25 to 50%

Inquiry: Recall and state the measured inhibition at 10 µM for Cc1cc(OCc2cc(Cl)ccn2)cc(=O)n1[C@H](C)c1ccc(C#CC2CC2)cc1 .
Reply text: 25 to 50%

###

# study_system: GPR84 (Homo sapiens (Human))
# assay: Gai biosensor BRET assay (GPR84-mediated activation of Gai, antagonist mode against agonist ZQ-16)
# Type: cell-based
# assay_conditions: compound tested at 10 μM (concentration code D)
The following molecules are shown together with reported inhibition at 10 µM values.

Some entries whose results are on file:
Cc1cc(OCC(F)(F)F)ccc1-c1cncc(OC[C@H]2COCCO2)c1 [Compound I-32] = 25 to 50%
CC(c1ccc(C#CC2CC2)cc1)n1ccc(OCC2COCCO2)cc1=O (stereo not drawn) [Compound I-13] = > 75%

The record that follows has no inhibition at 10 µM shown yet.
Inquiry: Recall and state the measured inhibition at 10 µM for Cc1cc(OCc2ncccn2)cc(=O)n1[C@H](C)c1ccc(C#CC2CC2)c(F)c1 [Compound I-325] .
Reply text: > 75%

###

# study_system: UniProtKB Q9NQS5
# assay: Gai biosensor BRET assay (GPR84-mediated activation of Gai, antagonist mode against agonist ZQ-16)
# Type: cell-based
# assay_conditions: compound tested at 10 μM (concentration code D)
measured_parameter: inhibition at 10 µM

Some entries whose results are on file:
Cc1cc(OCc2ncc(Cl)cn2)cc(=O)n1[C@H](C)c1ccc(C#CC2CC2)cc1 [Compound I-260] = > 75%
Cc1cc(OCc2ncccn2)cc(=O)n1C(CC(F)(F)F)c1ccc(C#CC2CC2)cc1 (centres unmarked) [Compound I-324] = > 75%

Inquiry: Recall and state the measured inhibition at 10 µM for COc1cnc(COc2cc(C)n([C@H](C)c3ccc(C#CC4CC4)cc3)c(=O)c2)nc1 [Compound I-247] .
Reply text: > 75%

###

# study_system: GPR84 (Homo sapiens (Human), UniProt Q9NQS5)
# Sequence (Q9NQS5 whole entry): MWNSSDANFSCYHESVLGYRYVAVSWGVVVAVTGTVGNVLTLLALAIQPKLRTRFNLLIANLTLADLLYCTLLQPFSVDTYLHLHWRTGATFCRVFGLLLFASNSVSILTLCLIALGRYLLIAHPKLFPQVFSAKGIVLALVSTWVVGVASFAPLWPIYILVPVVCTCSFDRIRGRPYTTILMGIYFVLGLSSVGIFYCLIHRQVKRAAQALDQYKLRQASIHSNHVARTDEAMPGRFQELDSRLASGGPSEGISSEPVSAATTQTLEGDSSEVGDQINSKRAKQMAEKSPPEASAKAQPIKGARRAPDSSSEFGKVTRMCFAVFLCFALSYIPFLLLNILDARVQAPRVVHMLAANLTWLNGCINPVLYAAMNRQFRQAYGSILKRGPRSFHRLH
# assay: Gai biosensor BRET assay (GPR84-mediated activation of Gai, antagonist mode against agonist ZQ-16)
# Assay type: cell-based
# assay_conditions: compound tested at 10 μM (concentration code D)
The following compounds are shown together with reported inhibition at 10 µM values.

Some entries whose results are on file:
Cc1cc(OCC2CCCOC2)cc(=O)n1[C@H](C)c1ccc(C#CC2CC2)cc1 (some centres unmarked) [Compound I-222] = > 75%
Cc1cc(OCc2ncccn2)cc(=O)n1C(C)c1cc(C#CC2CC2)cs1 (centres unmarked) [Compound I-265] = < 25%
Cc1cc(NC(=O)c2ncccn2)cc(=O)n1[C@H](C)c1ccc(C#CC2CC2)cc1 [Compound I-360] = > 75%
Cc1cnc(COc2cc(C)n([C@H](C)c3ccc(C#CC4CC4)cc3)c(=O)c2)nc1 [Compound I-279] = > 75%

The record that follows has no inhibition at 10 µM shown yet.
Inquiry: Recall and state the measured inhibition at 10 µM for Cc1cc(OCC2COCCO2)cc(=O)n1C(C)c1cc(C#CC2CC2)cs1 (centres unmarked) [Compound I-221] .
Reply text: 25 to 50%
